- Target entity: Tyrosine-protein phosphatase non-receptor type 1 (Homo sapiens)
- Sequence (P18031 whole entry): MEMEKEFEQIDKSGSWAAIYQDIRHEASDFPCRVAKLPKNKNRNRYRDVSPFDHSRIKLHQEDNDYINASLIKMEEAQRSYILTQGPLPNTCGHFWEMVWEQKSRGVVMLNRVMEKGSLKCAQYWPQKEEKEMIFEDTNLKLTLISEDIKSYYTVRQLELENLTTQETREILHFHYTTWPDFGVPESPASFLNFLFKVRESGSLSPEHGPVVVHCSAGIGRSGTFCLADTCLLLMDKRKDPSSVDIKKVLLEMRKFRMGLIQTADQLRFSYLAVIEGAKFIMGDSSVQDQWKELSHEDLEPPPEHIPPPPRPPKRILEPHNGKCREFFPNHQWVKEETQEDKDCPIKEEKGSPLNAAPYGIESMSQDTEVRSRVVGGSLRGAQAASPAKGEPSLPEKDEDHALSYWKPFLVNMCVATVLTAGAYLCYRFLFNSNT
- Method summary: Inhibition of PTP1B (unknown origin)
- Measurement context: read-out: pIC50 (converted)
Mark 1.0 only for IC50 values smaller than 600 nM; exact matches and larger values are 0.0.

Example entries begin here.
{"columns": ["Molecule", "Target entity", "Label value"],
 "data": [
  ["COc1cccc(CC(NC(=O)C[C@]23CCC(C)(C)C[C@H]2C2=CC[C@@H]4[C@@]5(C)CC[C@H](O)C(C)(C)[C@@H]5CC[C@@]4(C)[C@]2(C)CC3)C(=O)O)c1 (some centres undefined)", "Tyrosine-protein phosphatase non-receptor type 1 (Homo sapiens)", 1.0],
  ["COc1cccc(CC(NC(=O)C[C@]23CCC(C)(C)C[C@H]2C2=CC[C@@H]4[C@@]5(C)CC[C@H](O)C(C)(C)[C@@H]5CC[C@@]4(C)[C@]2(C)CC3)C(=O)O)c1OC (some centres undefined)", "Tyrosine-protein phosphatase non-receptor type 1 (Homo sapiens)", 0.0],
  ["CC1(C)CC[C@]2(C(=O)OCCCCCCC(=O)O)CC[C@]3(C)C(=CC[C@@H]4[C@@]5(C)CC[C@H](O)C(C)(C)[C@@H]5CC[C@]43C)[C@@H]2C1", "Tyrosine-protein phosphatase non-receptor type 1 (Homo sapiens)", 0.0]
]}

State whether 600 nM exceeds IC50 recorded for CC1(C)CC[C@]2(CC(=O)NC(Cc3ccc4c(c3)OCO4)C(=O)O)CC[C@]3(C)C(=CC[C@@H]4[C@@]5(C)CC[C@H](O)C(C)(C)[C@@H]5CC[C@]43C)[C@@H]2C1 (some centres undefined) .
1.0

State whether 600 nM exceeds IC50 recorded for CC1(C)CC[C@]2(CCCCC(=O)NC(Cc3ccccc3)C(=O)O)CC[C@]3(C)C(=CC[C@@H]4[C@@]5(C)CC[C@H](OCc6ccc(C(=O)O)cc6)C(C)(C)[C@@H]5CC[C@]43C)[C@@H]2C1 (some centres undefined) .
1.0

* * *

- Target entity: Tyrosine-protein phosphatase non-receptor type 1 (Homo sapiens, UniProt P18031)
- Method summary: Inhibition of PTP1B (unknown origin)
- Measurement context: read-out: IC50
Measured quantity: pIC50
Notebook: values listed as pIC50 are -log10 of the concentration (mol/L).

{"columns": ["Compound", "pIC50"],
 "data": [
  ["CC1(C)CC[C@]2(CC(=O)NC(Cc3ccccc3)C(=O)O)CC[C@]3(C)C(=CC[C@@H]4[C@@]5(C)CC[C@H](O)C(C)(C)[C@@H]5CC[C@]43C)[C@@H]2C1 (stereo partly drawn)", 6.24],
  ["CC1(C)CC[C@]2(C(=O)OCCCCCCCCCCC(=O)O)CC[C@]3(C)C(=CC[C@@H]4[C@@]5(C)CC[C@H](O)C(C)(C)[C@@H]5CC[C@]43C)[C@@H]2C1", 6.14]
]}

We now examine a further compound.
Sample CC1(C)CC[C@]2(C(=O)OCCCCCCCCCCCCC(=O)O)CC[C@]3(C)C(=CC[C@@H]4[C@@]5(C)CC[C@H](O)C(C)(C)[C@@H]5CC[C@]43C)[C@@H]2C1 — what was its pIC50?
6.23
